# assayed target: P70S6 kinase (T412E) (Homo sapiens (Human), UniProt P23443, T412E)
# Sequence (P23443 whole entry T412E): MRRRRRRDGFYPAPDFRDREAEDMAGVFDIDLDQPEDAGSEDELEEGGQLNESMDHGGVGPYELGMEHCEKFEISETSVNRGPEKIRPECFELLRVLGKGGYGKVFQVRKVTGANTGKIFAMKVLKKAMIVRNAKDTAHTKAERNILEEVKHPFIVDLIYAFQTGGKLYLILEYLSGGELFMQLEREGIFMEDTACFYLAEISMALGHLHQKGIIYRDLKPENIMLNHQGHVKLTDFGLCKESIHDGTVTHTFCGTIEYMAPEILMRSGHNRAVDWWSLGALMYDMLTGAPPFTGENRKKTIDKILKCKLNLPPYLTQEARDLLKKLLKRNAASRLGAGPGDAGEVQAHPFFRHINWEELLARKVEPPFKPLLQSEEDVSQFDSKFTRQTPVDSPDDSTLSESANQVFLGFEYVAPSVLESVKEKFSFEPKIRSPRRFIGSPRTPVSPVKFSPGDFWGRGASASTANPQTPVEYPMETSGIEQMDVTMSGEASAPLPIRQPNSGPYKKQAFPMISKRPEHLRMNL
# test protocol: P70S6 radiometric assay
# Type: biochemical
readout: IC50 (µM)

1) NC1(c2ccc(Cl)cc2)CCN(c2ncnc3[nH]ccc23)CC1; 0.013

----------
# assayed target: UniProtKB O75116
# Sequence (O75116 whole entry): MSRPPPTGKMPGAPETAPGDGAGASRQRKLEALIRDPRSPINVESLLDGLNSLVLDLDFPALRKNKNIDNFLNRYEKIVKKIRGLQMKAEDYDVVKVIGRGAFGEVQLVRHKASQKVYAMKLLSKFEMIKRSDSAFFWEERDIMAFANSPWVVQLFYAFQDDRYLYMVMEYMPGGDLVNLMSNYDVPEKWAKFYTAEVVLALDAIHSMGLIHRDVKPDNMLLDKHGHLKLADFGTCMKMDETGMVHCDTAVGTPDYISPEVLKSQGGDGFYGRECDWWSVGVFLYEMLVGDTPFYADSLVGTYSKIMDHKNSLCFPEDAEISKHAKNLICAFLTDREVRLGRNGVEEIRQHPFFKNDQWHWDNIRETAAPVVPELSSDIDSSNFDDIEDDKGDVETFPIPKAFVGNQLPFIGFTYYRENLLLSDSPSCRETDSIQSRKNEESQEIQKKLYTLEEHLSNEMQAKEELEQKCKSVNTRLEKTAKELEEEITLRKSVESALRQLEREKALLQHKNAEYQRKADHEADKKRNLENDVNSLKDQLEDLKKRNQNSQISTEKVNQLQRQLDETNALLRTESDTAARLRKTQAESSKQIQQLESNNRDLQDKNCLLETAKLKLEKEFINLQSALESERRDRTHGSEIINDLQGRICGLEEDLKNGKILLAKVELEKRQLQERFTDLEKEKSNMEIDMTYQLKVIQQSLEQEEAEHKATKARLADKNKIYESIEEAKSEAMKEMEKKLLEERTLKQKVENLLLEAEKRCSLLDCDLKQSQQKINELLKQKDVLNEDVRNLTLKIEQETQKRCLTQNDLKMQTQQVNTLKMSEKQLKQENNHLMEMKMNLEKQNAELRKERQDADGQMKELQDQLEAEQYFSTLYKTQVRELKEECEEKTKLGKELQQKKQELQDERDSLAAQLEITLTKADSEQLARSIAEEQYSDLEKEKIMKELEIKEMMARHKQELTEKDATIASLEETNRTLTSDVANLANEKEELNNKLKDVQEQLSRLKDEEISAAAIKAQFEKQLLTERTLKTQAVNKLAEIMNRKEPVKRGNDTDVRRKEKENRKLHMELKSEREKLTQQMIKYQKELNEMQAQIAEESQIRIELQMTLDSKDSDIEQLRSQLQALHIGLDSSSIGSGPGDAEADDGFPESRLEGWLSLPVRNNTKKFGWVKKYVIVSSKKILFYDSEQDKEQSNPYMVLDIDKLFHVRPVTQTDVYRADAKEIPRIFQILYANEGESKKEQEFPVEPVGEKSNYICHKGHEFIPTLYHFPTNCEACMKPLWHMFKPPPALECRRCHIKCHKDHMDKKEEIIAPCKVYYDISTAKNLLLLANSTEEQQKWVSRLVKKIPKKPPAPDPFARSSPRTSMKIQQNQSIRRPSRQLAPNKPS
# test protocol: ROCK-II (h) assay, radiometric filter assay
# Type: biochemical
# particulars: read-out: IC50 (anti-ROCK-II activity)
Listed molecules paired with reported IC50
readout: IC50

1. NC1CCN(c2ncnc3[nH]c(=O)[nH]c23)CC1; > 1000 nM
2. NC1(Cc2ccc(Cl)cc2Cl)CCN(c2ncnc3[nH]ccc23)CC1; < 30 nM

Cited source for all entries: patent US8796293B2
